method.description: yeast display, Sf9 membrane polyspecificity reagent, FACS + sequencing; frameworks hold sequencing errors
parameter: polyreactivity (PSR sort gate)

Example results:
[
  {
    "entry.sequence": "QVQLVESGGGLVQAGGSLRLSCAASGSTFRGYAMGWYRQAPGKERELVAAITRGGSTYYADSVKGRFTISRDNAKNTVYLQMNSLKPEDTAVYYFYDYWGQGTQVTVSS",
    "parameter": "polyreactivity (PSR sort gate)",
    "result": "low polyreactivity"
  },
  {
    "entry.sequence": "QVQLVESGGGLVQAGGSLRLSCAASGRIFYSYAMGWYRQAPGKERELVAAISSAGSTYYADSVKGRFTISRDNAKNTVYLQMNSLKPEDSAVYYCAAYRAGNSYYPRLNYWGQGTQVTVSS",
    "parameter": "polyreactivity (PSR sort gate)",
    "result": "high polyreactivity"
  },
  {
    "entry.sequence": "QVPLVESGGGLVQAGGSLSLTCAASGRNLKYYDMGWYRQAPGKERELVAAISVSGTSTYYADSVKGRFTISRDNAKNTVYLQMNSLKPEDTAVYYCATATGRYSFDYWGQGTQVTLSS",
    "parameter": "polyreactivity (PSR sort gate)",
    "result": "low polyreactivity"
  },
  {
    "entry.sequence": "QVQLVESGGGLVQAGGSLRLTCAASGYTFYSYAMGWYRQAPGKERELVAAIRTGGGTNYADSVKGRFTISRDNAMNTVYLQMNSLKPEDTAVYYCAADSFDPAGHVDYWGQGTQVTVSS",
    "parameter": "polyreactivity (PSR sort gate)",
    "result": "low polyreactivity"
  }
]

Query: Entry `QVQLVESGGGLVQAGGSLRLSCAASGFTFQFYAMGWYRQAPGKERELVARISESGSRTYYADSVKGRFTISRDNAKNTVYLQMNSLKPEDTAVYYCAADNPYLGRKFDYWGQGTQVTVSS` : reported polyreactivity (PSR sort gate) = ?
Result: high polyreactivity

###

method.description: yeast display, Sf9 membrane polyspecificity reagent, FACS + sequencing; frameworks hold sequencing errors
parameter: polyreactivity (PSR sort gate)

Below, each entry is followed by its recorded polyreactivity (PSR sort gate) result.
[
  {
    "entry.sequence": "QVQLVESGGGLVQAGGSLRLSCAASGSTFHDKAMGWYRQAPGKERELVAAITKTAGSTYYADSVKGRFTISRDNAKNTVYLQMNSMKPEDTAVYYCNAKTYHSRRKVLRFDYWGQGTQVTVSS",
    "polyreactivity (PSR sort gate)": "low polyreactivity"
  },
  {
    "entry.sequence": "QVQLVESGGGLVQAGGSLRLSCAASGIIFLENAMGWYRQAPGKEREFVAAISRSGGITYYADSVKGRFTISRDNAKNTVYLQMNSLKPEDTAVYYCAAVGRDRYRHSPQPLYDYWGQGTQVTVSS",
    "polyreactivity (PSR sort gate)": "low polyreactivity"
  },
  {
    "entry.sequence": "QVQLGESGGRKVQPGGSLRLSCAASGYTIAWYVMGWSRQAPGKESELVAAISWSGGRTYYADSVKGRFTISRDNAKNTVYLQMNSLNPQDTAVYYCNAYWNPASKYDYWGQGTQVTVSS",
    "polyreactivity (PSR sort gate)": "high polyreactivity"
  },
  {
    "entry.sequence": "QVQLVESGGGLVQAGGRLRLSCAASGITFWNYAMGWYRQAPGKETELVAAITGGSTYYADSVKGRFTISRDYAKNTVYLQMNSLKPEDTAVYYCNADSLFEYWDYDYWGQGTQVTVSS",
    "polyreactivity (PSR sort gate)": "low polyreactivity"
  },
  {
    "entry.sequence": "QVQLVESGGGLVQAGGSLRLSCAASGIIFSYYPMGRYRQAPGIERELVAAISRSGGNTYYADSVKGRFTISRDNAKNTVYVQMNSLKPEDTAVYYCAVGWYDDYYYGYDYWGQGTQVTVSS",
    "polyreactivity (PSR sort gate)": "high polyreactivity"
  },
  {
    "entry.sequence": "QVQLVESGGGLVQAGGSLRLICAASGSIFYRNAMGWYRQAPGKERELVAAISSDGSTNYADSVKGRFTISRDNAKNTVYLQMNSLKPEDTAVYYCAAPWTQILDYWGQGTQVTVSS",
    "polyreactivity (PSR sort gate)": "low polyreactivity"
  }
]

Query: GET /values?readout=polyreactivity (PSR sort gate)&item= `QVQVVESVGGLVQAGGILRLSCAASGRTFRGNAMGWYRQAPGKERELVAAISSSGARTYYADSVKGRFTISRDNAKNTVYLQMNSLKPEDTAVYYCAAVYTDGALQGYDYWGQGTQVTVSS`
Result: low polyreactivity

Query: # iterate: `QVQLVESGGGLVQAGGSLRLSCAASGRTFYDYTMGWYRQAPGKERELVAVISKRGGSTYYADSVKGRFTISRDNAKNTVYLQMNSLKPEDTAVYYCAAKSGRNVYQKVDYWGQGTQVTVSS`
Result: high polyreactivity

Query: # iterate: `QVQLVESGGGLVQAGCSLRLSCAASGSTFSPNAMGWYRQAPGKERELVASIRIGGRTNYADSVKGRFTISRDNAKNTVYLQMNSLKPEDTAVYYCARRHYYSRFTVSKLSRYDYWGQGTQVTVSS`
Result: high polyreactivity

Query: Okay, and `QVQLVESGGGLVQAGGSLRLSCAASGSIFVPYAMGWYRQAPGKERELVAVITSGGSTYYADSVKGRFTISRDNAKNTVFLQMNSLKPEDTAVYYCAVDGGEFSSYGYWGQGTQVTVSS` ?
Result: low polyreactivity

Query: Now the sequence `QVQLVESGGGLVQAVGSLRLSCAASGRTFGNYAMGWYRQAPGKERELVAAISRSGASTYYADSVKGRFTISRDNAKNSVYLQMNSLKPEDTAVYYCAARVLKPFKYGYWGQGTQVTVSS`
Result: high polyreactivity

###

method.description: yeast display, Sf9 membrane polyspecificity reagent, FACS + sequencing; frameworks hold sequencing errors
parameter: polyreactivity (PSR sort gate)

[
  {
    "entry.sequence": "QVQLVESGGGLVQAGGSLRLSCAASGLIFLYAMGWYRQAPGKERELVAAISNGGSTYYADSVKGRFTISRDNAKNTVYLQMNSLKPEDTAVYYCAAKGVRRRYRQDMYYWGQGTQVTVSS",
    "polyreactivity (PSR sort gate)": "high polyreactivity"
  },
  {
    "entry.sequence": "QGQLVESGGGLVQAGGSLRLSCAASGNTFNVYAMGWYRQAPGKARELVAAITLSGGSTYYADSVKGRFTISRDNSKNTVYLQMNSLKPEDTAFYYCNAEEDGTDYDYWGQGTQVTVSS",
    "polyreactivity (PSR sort gate)": "low polyreactivity"
  },
  {
    "entry.sequence": "QVQLVDSGGGLVQAGGSLRLSCAASGRIFPVYAMAWYRHAPGKEREMVAAITKSGGNTYYADSVKGRFTISRDNAKYTVYLQMNSMKPEDTAVYYCAADSSAKMGPQYYYALDYWGQGTKVTVSS",
    "polyreactivity (PSR sort gate)": "low polyreactivity"
  },
  {
    "entry.sequence": "QVQLVDSVGGLVQAGGSLRLSCAASGSIFGYYAMAWYRQAPGKERELFASITRSGDTTYYADSVKGRFTISRDNANNTVFLQMNSLKQEDTAVSYCAARRWRWYYDGFVRMDYWGQGTQVTVSS",
    "polyreactivity (PSR sort gate)": "high polyreactivity"
  },
  {
    "entry.sequence": "QVQLQESDGGLVQAGGSLRLSCAASGSISPQYYMGWYRQEPGKEREFVAISKGTTTYYADSVKGRLTISRVNAKNTVYLQMNSLKPEDTAVYCCAAGRWLQKVHAYWDQGTQVTVSS",
    "polyreactivity (PSR sort gate)": "low polyreactivity"
  },
  {
    "entry.sequence": "QVQLVESGGGLVQAGGSLRLSCAASGSIFGVYAMGWYRQAPGKERELVAGITFGDSTTYYADSVKGRFTISRDNAKNTVYLQMNSLKPEDTAVYYCAADNRWEDYKVDYWGQGTQVTVSS",
    "polyreactivity (PSR sort gate)": "low polyreactivity"
  },
  {
    "entry.sequence": "QVQLVESGGGLVQAGGSLRLSCAASGSIFSDNVMGWYRQAPGKERELVAAIRDGDTTNYADSVKGRFTISRDNAKNTVYLQMNCLKPEDTAVYYCAAVQASSPDYSYAYLDGDRDYWGQGTQVTVSS",
    "polyreactivity (PSR sort gate)": "low polyreactivity"
  },
  {
    "entry.sequence": "QVQLVESGGGLVQAGGSLRLSCAASGRIFGYNTMGWYRQAPGKERELVAAINSGGRTYYADSVKGRFPISRDNAKNTVYLQMNSLKPEDTAVYYCATTTYKRFYRAPTSKYDYWGQGTQVTVSS",
    "polyreactivity (PSR sort gate)": "high polyreactivity"
  }
]

Proceeding to the next sequence to report its polyreactivity (PSR sort gate).
Query: Fill in: polyreactivity (PSR sort gate) of `QVQLVESGGGLVQAGGSLRLSCAASGLIFRYYCMGWSRQAPRKERELVATINRSGGRTYYADSVKGRFTISRDNAKNTDSLQMNSQKRDETAVYYCAALPEVYWIYGPQMDYWGQGTQVNVSS` is ___
Result: high polyreactivity

The measurements presented in this section are drawn from the nanobody polyreactivity screen of Harvey et al. (2022).
